These measurements were taken from ChEMBL document CHEMBL4219184.

TESTED ON: Serine/threonine-protein kinase B-raf (Mus musculus, UniProt P28028, V600E)
Sequence (P28028 whole entry, looked up, stated change not applied): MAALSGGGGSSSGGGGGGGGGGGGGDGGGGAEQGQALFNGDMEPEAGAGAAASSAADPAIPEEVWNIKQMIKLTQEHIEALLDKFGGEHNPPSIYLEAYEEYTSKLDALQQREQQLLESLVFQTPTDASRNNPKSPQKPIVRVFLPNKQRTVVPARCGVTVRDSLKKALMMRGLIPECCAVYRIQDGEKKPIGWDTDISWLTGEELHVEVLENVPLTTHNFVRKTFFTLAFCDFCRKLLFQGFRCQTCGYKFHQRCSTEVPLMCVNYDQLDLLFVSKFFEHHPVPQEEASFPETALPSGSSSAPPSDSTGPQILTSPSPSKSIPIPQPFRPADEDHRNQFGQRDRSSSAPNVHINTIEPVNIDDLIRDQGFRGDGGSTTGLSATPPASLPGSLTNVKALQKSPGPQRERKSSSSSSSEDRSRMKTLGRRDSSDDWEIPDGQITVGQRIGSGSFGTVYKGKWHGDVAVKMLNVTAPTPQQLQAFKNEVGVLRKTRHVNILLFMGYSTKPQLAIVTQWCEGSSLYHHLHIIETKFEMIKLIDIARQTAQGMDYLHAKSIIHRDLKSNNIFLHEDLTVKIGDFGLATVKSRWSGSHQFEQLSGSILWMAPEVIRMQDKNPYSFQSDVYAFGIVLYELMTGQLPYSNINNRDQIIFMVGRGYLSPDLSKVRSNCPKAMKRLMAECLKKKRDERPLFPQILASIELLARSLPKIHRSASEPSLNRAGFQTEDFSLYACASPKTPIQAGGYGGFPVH
ASSAY EXPLANATION: Inhibition of mouse full length GST-tagged BRAF V600E mutant using recombinant human full length N-terminal His-tagged MEK1 as substrate preincubated for 1 hr followed by substrate addition measured after 25 mins by Nu-page gel-based phosphor screen analysis
pIC50: −log10 of the molar value.
PROPERTY NAME: pIC50

molecular_string=O=C(Nc1cccc(C(=O)Nc2ccc3[nH]ncc3c2)c1)c1ccc(Oc2ccccc2)cc1 tested_on="Serine/threonine-protein kinase B-raf (Mus musculus, UniProt P28028, V600E)" property_name=pIC50 readout_value=5.28
molecular_string=O=C(Nc1cccc(C(=O)Nc2ccc3[nH]ncc3c2)c1)c1ccccc1 tested_on="Serine/threonine-protein kinase B-raf (Mus musculus, UniProt P28028, V600E)" property_name=pIC50 readout_value=5.28
molecular_string=O=C(Nc1cccc(C(=O)Nc2ccc3[nH]ncc3c2)c1)c1ccc(F)cc1 tested_on="Serine/threonine-protein kinase B-raf (Mus musculus, UniProt P28028, V600E)" property_name=pIC50 readout_value=5.80

(1) Cc1cccc(C(=O)Nc2cccc(C(=O)Nc3ccc4[nH]ncc4c3)c2)n1
(2) O=C(Nc1cccc(C(=O)Nc2ccc3[nH]ccc3c2)c1)c1ccccc1
*Q* // which entry reports the smaller pIC50, 1 or 2 ? Pick one and reply with its label.
*A* 2
(2: 5.68, 1: 6.09)
